The entries below are paired with their reported IC50.
biological target: β-adrenergic receptor (β1), guinea-pig right atrium (Cavia porcellus, UniProt H0W3H1); construct: Spontaneously beating right atria are dissected from guinea-pigs; from tissue; host or cells: guinea-pig right atrium (strip with sinoatrial node); experiment: Guinea-pig right atrium (β1): inhibition of isoprenaline-induced increase in heart rate; type: cell-based; details: Table I, isolated guinea-pig right atrium, drug incubation 30 min, 37.5° C., ED50 estimated graphically
Sequence (H0W3H1 1-470): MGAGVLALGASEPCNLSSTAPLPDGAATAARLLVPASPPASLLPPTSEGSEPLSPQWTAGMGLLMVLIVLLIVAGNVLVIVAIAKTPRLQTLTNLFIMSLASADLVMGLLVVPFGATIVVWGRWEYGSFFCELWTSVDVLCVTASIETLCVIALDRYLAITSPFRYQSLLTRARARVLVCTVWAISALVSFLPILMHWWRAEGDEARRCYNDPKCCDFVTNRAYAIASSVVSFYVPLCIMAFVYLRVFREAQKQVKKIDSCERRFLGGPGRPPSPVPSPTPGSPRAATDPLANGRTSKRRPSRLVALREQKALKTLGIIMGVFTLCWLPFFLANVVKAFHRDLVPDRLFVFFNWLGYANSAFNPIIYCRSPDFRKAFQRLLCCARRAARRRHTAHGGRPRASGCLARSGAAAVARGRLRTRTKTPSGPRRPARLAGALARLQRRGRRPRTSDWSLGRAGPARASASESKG
Experimental Readout: IC50 (nM)

1) C=CCc1ccccc1OCC(O)CN1CCCC(Cn2c(=O)[nH]c3ccccc32)C1 (stereo not shown); 5.93
2) O=c1[nH]c2cc(Cl)ccc2n1CC1CCCN(CC(O)COc2ccccc2)C1 (stereo not shown); 12
3) CC(=O)c1ccc(OCC(O)CN2CCCC(Cn3c(=O)[nH]c4ccccc43)C2)cc1 (stereo not shown); 5.9
4) C=CCOc1ccccc1OCC(O)CN1CCCC(Cn2c(=O)[nH]c3ccccc32)C1 (stereo not shown); 2.86
5) COc1ccccc1OCC(O)CN1CCCC(Cn2c(=O)[nH]c3ccccc32)C1 (stereo not shown); 2.43
6) O=c1[nH]c2ccc(Cl)cc2n1CC1CCCN(CC(O)COc2cccc3ccccc23)C1 (stereo not shown); 10.7
7) CSc1ccc(OCC(O)CN2CCCC(Cn3c(=O)[nH]c4ccccc43)C2)cc1 (stereo not shown); 1.47
8) N#Cc1ccccc1OCC(O)CN1CCCC(Cn2c(=O)[nH]c3ccc(Cl)cc32)C1 (stereo not shown); 11.3
9) CCOc1ccccc1OCC(O)CN1CCCC(Cn2c(=O)[nH]c3ccc(Cl)cc32)C1 (stereo not shown); 21.7
10) O=c1[nH]c2ccccc2n1CC1CCCN(CC(O)COc2ccc(Cl)cc2)C1 (stereo not shown); 48.1
11) N#Cc1ccccc1OCC(O)CN1CCCC(Cn2c(=O)[nH]c3ccccc32)C1 (stereo not shown); 6.15
12) O=c1[nH]c2cc(F)ccc2n1CC1CCCN(CC(O)COc2ccccc2)C1 (stereo not shown); 3.13
13) CCCc1ccc(OCC(O)CN2CCCC(Cn3c(=O)[nH]c4cc(F)ccc43)C2)cc1 (stereo not shown); 22.6
14) O=c1[nH]c2ccccc2n1CC1CCCN(CC(O)COc2ccccc2)C1 (stereo not shown); 1.65
15) CCCCNC(=O)Nc1ccc(OCC(O)CN2CCCC(Cn3c(=O)[nH]c4ccccc43)C2)cc1 (stereo not shown); 20.2
16) O=c1[nH]c2ccccc2n1CC1CCCN(CC(O)COc2ccccc2Br)C1 (stereo not shown); 5.43

* * *

target: β-adrenergic receptor (β1), guinea-pig right atrium (Cavia porcellus, UniProt H0W3H1); construct: Spontaneously beating right atria are dissected from guinea-pigs; from tissue; host or cells: guinea-pig right atrium (strip with sinoatrial node); assay: Guinea-pig right atrium (β1): inhibition of isoprenaline-induced increase in heart rate; type: cell-based; conditions: Table I, isolated guinea-pig right atrium, drug incubation 30 min, 37.5° C., ED50 estimated graphically
pIC50: −log10 of the molar value.
# binarize pIC50: threshold 8 inclusive, high side Satisfied, low side Not satisfied

1) CC(=O)Nc1ccc(OCC(O)CN2CCCC(Cn3c(=O)[nH]c4ccccc43)C2)cc1 (stereo not shown); Satisfied
2) COc1ccc(OCC(O)CN2CCCC(Cn3c(=O)[nH]c4ccccc43)C2)cc1 (stereo not shown); Not satisfied
3) O=c1[nH]c2ccccc2n1CC1CCCN(CC(O)COc2cccc3ccccc23)C1 (stereo not shown); Not satisfied
4) CC(=O)c1ccccc1OCC(O)CN1CCCC(Cn2c(=O)[nH]c3ccccc32)C1 (stereo not shown); Satisfied
5) Cc1cc(OCC(O)CN2CCCC(Cn3c(=O)[nH]c4ccccc43)C2)cc(C)c1Cl (stereo not shown); Satisfied
6) CCCOc1ccccc1OCC(O)CN1CCCC(Cn2c(=O)[nH]c3ccccc32)C1 (stereo not shown); Satisfied
7) O=c1[nH]c2ccccc2n1CC1CCCN(CC(O)COc2ccc(F)cc2)C1 (stereo not shown); Satisfied
8) COc1ccccc1OCC(O)CN1CCCC(Cn2c(=O)[nH]c3ccc(Cl)cc32)C1 (stereo not shown); Satisfied
